Test system: MRSA
ASSAY OVERVIEW: MIC by broth microdilution, MRSA isolates
Type: cell-based
MEASUREMENT SETUP: clinical isolate AG038
MEASURED ENDPOINT: MIC AG038 MRSA (µg/mL)
Supply the numeric figure in µg/mL, leaving out any unit text.

COMPOUND: NCC1OC(OC2C(CO)OC(OC3C(O)C(N)CC(N)C3OC3OC4C(O)CCOC4C(O)C3N)C2O)C(N)C(O)C1O (stereo not drawn)
TARGET: MRSA
MIC AG038 MRSA, µg/mL: 4

Then there is this compound:
Challenge: Which measured MIC AG038 MRSA value corresponds to NC[C@@H]1O[C@H](O[C@H]2[C@@H](O)[C@H](O[C@@H]3[C@@H](O)[C@H](N)C[C@H](N)[C@H]3O[C@H]3O[C@H](CN)[C@@H](O)[C@H](O)[C@H]3N)O[C@@H]2CO)[C@H](N)[C@@H](O)[C@@H]1O [neomycin, Neomycin B, reference compound] ?
Response given: 0.25

* * *

Parameter: MIC AG038 MRSA. Scope: all listed entries.
Tested on: MRSA
ASSAY OVERVIEW: MIC by broth microdilution, MRSA isolates
Format: cell-based
MEASUREMENT SETUP: clinical isolate AG038
Your answer should be a plain number; it is taken to be in µg/mL.

COMPOUND: CC1CC(N)C2OC(OC3C(N)CC(N)C(O)C3OC3OC(CO)C(OC4OC(CN)C(O)C(O)C4N)C3O)C(N)C(O)C2O1 (stereo not drawn) [DC150]
NUMERIC VALUE: 128
--
COMPOUND: NCC1OC(OC2C(CNC=O)OC(OC3C(O)C(N)CC(N)C3OC3OC(CO)C(O)CC3N)C2O)C(N)C(O)C1O (stereo not drawn) [DC153]
NUMERIC VALUE: 4

Now consider the entry below.
Challenge: For MRSA, provide MIC AG038 MRSA of CCCC(O)C1OC(OC2C(N)CC(N)C(O)C2OC2OC(CO)C(OC3OC(CN)C(O)C(O)C3N)C2O)C(N)C(O)C1O (stereo not drawn) [DC142] please.
Response given: 4

* * *

System: P aeruginosa
ASSAY OVERVIEW: MIC by broth microdilution, P aeruginosa isolates
Assay type: cell-based, Pseudomonas aeruginosa
MEASUREMENT SETUP: clinical isolate AG032, APH(3′)-II
Entries and their MIC AG032 P. aer. APH(3′)-II

COMPOUND: CCCC(O)C1OC(OC2C(N)CC(N)C(O)C2OC2OC(CO)C(OC3OC(CN)C(O)C(O)C3N)C2O)C(N)C(O)C1O (centres unmarked) [DC142]
MIC AG032 P. aer. APH(3′)-II: >128 µg/mL

Challenge: Look up MIC AG032 P. aer. APH(3′)-II: NC[C@@H]1O[C@H](O[C@H]2[C@@H](O)[C@H](O[C@@H]3[C@@H](O)[C@H](N)C[C@H](N)[C@H]3O[C@H]3O[C@H](CN)[C@@H](O)[C@H](O)[C@H]3N)O[C@@H]2CO)[C@H](N)[C@@H](O)[C@@H]1O [neomycin, Neomycin B, reference compound]
Response given: 8 µg/mL

Challenge: # input compound: CCNC1C(OC2C(N)CC(N)C(O)C2OC2OC(CO)C(OC3OC(CN)C(O)C(O)C3N)C2O)OC(CN)C(O)C1O (centres unmarked) [DC-172] ; wanted: its MIC AG032 P. aer. APH(3′)-II
Response given: >64 µg/mL

Challenge: # MIC AG032 P. aer. APH(3′)-II lookup, item CCCC(O)C1OC(OC2C(N)CC(N)C(O)C2OC2OC(CO)C(OC3OC(CN)C(O)C(O)C3N)C2O)C(N)C(O)C1O (centres unmarked) [DC143]
Response given: >64 µg/mL

Challenge: Using the record for NC[C@H]1O[C@H](O[C@H]2[C@H](O[C@@H]3O[C@H](CNC=O)[C@@H](O)[C@H]3O)[C@@H](O)[C@H](N)C[C@@H]2N)[C@H](N)[C@@H](O)[C@@H]1O [DC130] , report its MIC AG032 P. aer. APH(3′)-II.
Response given: >128 µg/mL

* * *

Each entry below lists one item and its recorded MIC value.
System: E coli wild type
ASSAY OVERVIEW: MIC by broth microdilution, wild type E coli
Format: cell-based
MEASUREMENT SETUP: Escherichia coli, WT; Table 4 (Example 3); read-out: MIC E. coli WT
Where a name gives a salt, the structure may show the parent alone.

Challenge: Item under review: CNC1C(OC2C(N)CC(N)C(O)C2OC2OC(CO)C(OC3OC(CN)C(O)C(O)C3N)C2O)OC(CO)C(O)C1O (stereo not shown) [Compound 115, 2′-N-Methyl-paromomycin acetate salt] . Reported MIC?
Response given: 2 to 4 µg/mL

Challenge: Return reported MIC; argument: CCNC1C(OC2C(N)CC(N)C(O)C2OC2OC(CO)C(OC3OC(CN)C(O)C(O)C3N)C2O)OC(CN)C(O)C1O (stereo not shown) [Compound 172, 2′-N-Ethyl-neomycin acetate salt]
Response given: 0.5 to 1 µg/mL

Challenge: Suppose we examine the compound NCC1OC(OC2C(CO)OC(OC3C(O)C(N)CC(N)C3OC3OC(CN)C(O)C(O)C3O)C2O)C(N)C(O)C1O (stereo not shown) ; what MIC value has been reported?
Response given: 0.5 to 1 µg/mL

Challenge: Look up MIC for this compound: NC[C@@H]1O[C@H](O[C@H]2[C@@H](O)[C@H](O[C@@H]3[C@@H](O)[C@H](N)C[C@H](N)[C@H]3O[C@H]3O[C@H](CO)[C@@H](O)[C@H](O)[C@H]3N)O[C@@H]2CO)[C@H](N)[C@@H](O)[C@@H]1O [paromomycin, reference compound]
Response given: 1 to 2 µg/mL

* * *

System: MRSA
ASSAY OVERVIEW: MIC by broth microdilution, MRSA isolates
Format: cell-based
MEASUREMENT SETUP: clinical isolate AG042, AAC(6′)-I ANT(4′)-I APH(2′)
MEASURED ENDPOINT: MIC AG042 MRSA AAC(6′)-I ANT(4′)-I APH(2′)

Below, each entry is followed by its recorded MIC AG042 MRSA AAC(6′)-I ANT(4′)-I APH(2′) result.
MOLECULE: NCC1OC(OC2C(CNC=O)OC(OC3C(O)C(N)CC(N)C3OC3OC(CO)C(O)CC3N)C2O)C(N)C(O)C1O (stereo not shown)
RESULT: >128 µg/mL
//
MOLECULE: CCCC(O)C1OC(OC2C(N)CC(N)C(O)C2OC2OC(CO)C(OC3OC(CN)C(O)C(O)C3N)C2O)C(N)C(O)C1O (stereo not shown) [DC142]
RESULT: >128 µg/mL

Challenge: Item NC[C@H]1O[C@H](O[C@H]2[C@H](O[C@@H]3O[C@H](CN)[C@@H](O)[C@H]3O)[C@@H](O)[C@H](N)C[C@@H]2N)[C@H](N)[C@@H](O)[C@@H]1O with MRSA - MIC AG042 MRSA AAC(6′)-I ANT(4′)-I APH(2′)?
Response given: >128 µg/mL

Challenge: # get_value(readout= MIC AG042 MRSA AAC(6′)-I ANT(4′)-I APH(2′), system= MRSA) for NCC1OC(OC2C(CNC(N)=O)OC(OC3C(O)C(N)CC(N)C3OC3OC(CO)C(O)C(O)C3N)C2O)C(N)C(O)C1O (stereo not shown)
Response given: >128 µg/mL

Challenge: Fill in the recorded MIC AG042 MRSA AAC(6′)-I ANT(4′)-I APH(2′) for this molecule, with MRSA as test system: CCNC1C(OC2C(N)CC(N)C(O)C2OC2OC(CO)C(OC3OC(CN)C(O)C(O)C3N)C2O)OC(CN)C(O)C1O (stereo not shown)
Response given: >32 µg/mL

Challenge: Form field: MIC AG042 MRSA AAC(6′)-I ANT(4′)-I APH(2′) recorded for NC[C@@H]1O[C@H](O[C@H]2[C@@H](O)[C@H](O[C@@H]3[C@@H](O)[C@H](N)C[C@H](N)[C@H]3O[C@H]3O[C@H](CO)[C@@H](O)C[C@H]3N)O[C@@H]2CO)[C@H](N)[C@@H](O)[C@@H]1O [Lividomycin B, lividomycin B, reference compound] with MRSA (enter value)
Response given: >128 µg/mL

Challenge: Lab note: need MIC AG042 MRSA AAC(6′)-I ANT(4′)-I APH(2′) with MRSA for entry CC(O)C1OC(OC2C(N)CC(N)C(O)C2OC2OC(CO)C(OC3OC(CN)C(O)C(O)C3N)C2O)C(N)C(O)C1O (stereo not shown) , please look it up.
Response given: >128 µg/mL

Challenge: # returns recorded MIC AG042 MRSA AAC(6′)-I ANT(4′)-I APH(2′) (system: MRSA) for NC[C@@H]1O[C@H](O[C@H]2[C@@H](O)[C@H](O[C@@H]3[C@@H](O)[C@H](N)C[C@H](N)[C@H]3O[C@H]3O[C@H](CN)[C@@H](O)[C@H](O)[C@H]3N)O[C@@H]2CO)[C@H](N)[C@@H](O)[C@@H]1O [neomycin, Neomycin B, reference compound]
Response given: 128 µg/mL

Challenge: What value of MIC AG042 MRSA AAC(6′)-I ANT(4′)-I APH(2′) on MRSA does NC[C@H]1O[C@H](O[C@H]2[C@H](O[C@@H]3O[C@H](CO)[C@@H](O)[C@H]3O)[C@@H](O)[C@H](N)C[C@@H]2N)[C@H](N)C[C@@H]1O have?
Response given: >128 µg/mL

Challenge: // lookup MIC AG042 MRSA AAC(6′)-I ANT(4′)-I APH(2′) | system=MRSA | key= CC1CC(N)C2OC(OC3C(N)CC(N)C(O)C3OC3OC(CO)C(OC4OC(CN)C(O)C(O)C4N)C3O)C(N)C(O)C2O1 (stereo not shown)
Response given: 128 µg/mL
